experiment_notes: Plasma pharmacokinetics of ALM201 in Phase I patients (validated LC-MS/MS, Phoenix WinNonlin)
assay_conditions: human, plasma, sc, 40 mg, Plasma concentration, geometric mean (CV%), 40 mg SC, day 18 cycle 1, 2 h after dosing, n = 1; LC-MS/MS
No end group written: not given here.
measured_property: level at 2 h
Please don't drop the unit; write it after the number.

Input line: State its level at 2 h: IRQQPRDPPTETLELEVSPDPAS [ALM201]
Output line: 368 ng/mL

* * *

experiment_notes: Plasma pharmacokinetics of ALM201 in Phase I patients (validated LC-MS/MS, Phoenix WinNonlin)
assay_conditions: human, plasma, sc, 160 mg, Plasma concentration, geometric mean (CV%), 160 mg SC, day 18 cycle 1, 1 h after dosing, n = 3; LC-MS/MS
No end group written: not given here.
measured_property: level at 1 h (ng/mL)
Kindly answer with a numeric value in ng/mL, unit omitted.

Input line: Consider the sequence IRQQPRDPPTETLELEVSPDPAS [ALM201] and give its recorded level at 1 h.
Output line: 1150

* * *

experiment_notes: Plasma pharmacokinetics of ALM201 in Phase I patients (validated LC-MS/MS, Phoenix WinNonlin)
assay_conditions: human, plasma, sc, 40 mg, AUC0-t, Gmean (CV), 40 mg SC, day 18 cycle 2, n = 1; plasma LC-MS/MS
No end group written: not given here.
measured_property: AUC(0-t)
Param answer (str): number followed by unit.

Input line: Specify AUC(0-t) for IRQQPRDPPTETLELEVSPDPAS [ALM201] and stop.
Output line: 1950 ng·h/mL

* * *

experiment_notes: Plasma pharmacokinetics of ALM201 in Phase I patients (validated LC-MS/MS, Phoenix WinNonlin)
assay_conditions: human, plasma, sc, 40 mg, Tmax, median, 40 mg SC, day 1 cycle 1, n = 1; plasma LC-MS/MS
No end group written: not given here.
measured_property: Tmax (h)
Note: unit h is implicit; provide only the numeric part.

Input line: Specify Tmax for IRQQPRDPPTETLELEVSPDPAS [ALM201] and stop.
Output line: 1.63

* * *

experiment_notes: Plasma pharmacokinetics of ALM201 in Phase I patients (validated LC-MS/MS, Phoenix WinNonlin)
assay_conditions: human, plasma, sc, 300 mg, Plasma concentration, geometric mean (CV%), 300 mg SC, day 18 cycle 4, 1 h after dosing, n = 1; LC-MS/MS
No end group written: not given here.
measured_property: level at 1 h (ng/mL)
Report as a plain number; the unit ng/mL is understood.

Input line: State, in one line, measured level at 1 h of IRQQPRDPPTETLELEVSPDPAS [ALM201]
Output line: 2140

* * *

experiment_notes: Plasma pharmacokinetics of ALM201 in Phase I patients (validated LC-MS/MS, Phoenix WinNonlin)
assay_conditions: human, plasma, sc, 200 mg, Plasma concentration, geometric mean (CV%), 200 mg SC, day 18 cycle 2, 2 h after dosing, n = 2; LC-MS/MS
No end group written: not given here.
measured_property: level at 2 h (ng/mL)
The figure you give is taken to be in ng/mL; do not add the unit.

Input line: Look up and state reported level at 2 h for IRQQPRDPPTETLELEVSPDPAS [ALM201]
Output line: 1360

* * *

experiment_notes: Plasma pharmacokinetics of ALM201 in Phase I patients (validated LC-MS/MS, Phoenix WinNonlin)
assay_conditions: human, plasma, sc, 160 mg, Cmax, Gmean (CV), 160 mg SC, day 3 cycle 1, n = 3; plasma LC-MS/MS
No end group written: not given here.
measured_property: Cmax (ng/mL)
Report the value in ng/mL with no unit label.

Input line: Name the recorded Cmax of the sequence listed here: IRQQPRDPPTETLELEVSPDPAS [ALM201]
Output line: 1490
